From: paper PMC4751086

- Target: T1, HD-PTP(1–361) (human, UniProt Q9H3S7 1-361)
- T1 construct: also called HD-PTP Bro1 domain; PTPN23; source: E. coli BL21(DE3) RIL, purified (Ni-NTA, TEV protease, gel filtration); not shown: (His)6, N-terminal, cleaved
- T1 sequence (looked up): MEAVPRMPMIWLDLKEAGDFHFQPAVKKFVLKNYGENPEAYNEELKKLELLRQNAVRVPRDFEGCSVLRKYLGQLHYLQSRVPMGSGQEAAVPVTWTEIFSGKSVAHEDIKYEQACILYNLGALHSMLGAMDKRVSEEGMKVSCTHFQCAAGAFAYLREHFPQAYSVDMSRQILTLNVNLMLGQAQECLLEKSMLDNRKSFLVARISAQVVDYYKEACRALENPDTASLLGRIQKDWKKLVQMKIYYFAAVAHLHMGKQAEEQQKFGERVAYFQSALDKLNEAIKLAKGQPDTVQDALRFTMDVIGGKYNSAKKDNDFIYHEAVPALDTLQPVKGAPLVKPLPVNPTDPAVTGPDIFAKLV
- Test method notes: ITC; 0.5 mM peptide titrated into 50 μM protein; iTC200; 2°C as printed; 20 mM Tris-HCl (pH 7.5), 100 mM NaCl
- Run conditions: both partners purified
Quantity measured: Kd

Q: Retrieve Kd measured for KEEEDDDMKELENWAGSM (peptide, UniProt Q9H444 207-224, looked up, CHMP4B, residues 207–224 (18-mer; the polypeptide terminates with Met224); also called CHMP4B peptide of 18-mer (residues 207–224); charged multivesicular body protein 4B; source: synthetic peptide, bought: Peptron (Korea)) [CHMP4B(207–224)] and print it.
A: < 8 µM
